Can you tell me pIC50 for the items I'm about to list?
# TARGET SYSTEM: myeloperoxidase (Homo sapiens (Human))
# ASSAY PROCEDURE: MPO Chlorination Assay (APF Assay)
# Assay type: biochemical
# MEASUREMENT SETUP: potency range class
pIC50: −log10 of the molar value.

# count of solved cases: 3
COMPOUND	pIC50
Nc1cc(C(CCCc2ccccc2)c2cnn(Cc3ccc4c(c3)CCNC4)c2)c2nn[nH]c2n1 (stereo not shown)	7.00 to 9.00
Nc1cc(C(CCN[C@H]2CC[C@H](c3ccccc3)CC2)c2cnn(Cc3ccc(Cl)cc3)c2)c2nn[nH]c2n1 (stereo partly shown)	7.00 to 9.00
Nc1cc(C(CCN[C@H]2CC[C@H](c3ccccc3)CC2)c2cncc(F)c2)c2nn[nH]c2n1 (stereo partly shown)	6.00 to 7.00

# map each compound to its pIC50
1. Nc1cc(C(CCNCc2ccccc2)c2cnn(Cc3cccc(O)c3)c2)c2nn[nH]c2n1 (stereo not shown)
2. Nc1cc(C(CCC2CCOCC2)c2cnn(Cc3ccc4c(c3)CCNC4)c2)c2nn[nH]c2n1 (stereo not shown)

## Result
1: 6.00 to 7.00; 2: 5.00 to 6.00

# map each compound to its pIC50
1. Nc1cc(C(CCCC2CCCCC2)c2cnn(Cc3ccc4c(c3)CCNC4)c2)c2nn[nH]c2n1 (stereo not shown)
2. Nc1cc(C(CCNC2CCC(c3ccccc3)CC2)c2cnn(Cc3ccccc3)c2)c2nn[nH]c2n1 (stereo not shown)

## Result
7.00 to 9.00
7.00 to 9.00

###

# TARGET SYSTEM: myeloperoxidase (Homo sapiens (Human), UniProt P05164)
# Sequence (P05164 49-745): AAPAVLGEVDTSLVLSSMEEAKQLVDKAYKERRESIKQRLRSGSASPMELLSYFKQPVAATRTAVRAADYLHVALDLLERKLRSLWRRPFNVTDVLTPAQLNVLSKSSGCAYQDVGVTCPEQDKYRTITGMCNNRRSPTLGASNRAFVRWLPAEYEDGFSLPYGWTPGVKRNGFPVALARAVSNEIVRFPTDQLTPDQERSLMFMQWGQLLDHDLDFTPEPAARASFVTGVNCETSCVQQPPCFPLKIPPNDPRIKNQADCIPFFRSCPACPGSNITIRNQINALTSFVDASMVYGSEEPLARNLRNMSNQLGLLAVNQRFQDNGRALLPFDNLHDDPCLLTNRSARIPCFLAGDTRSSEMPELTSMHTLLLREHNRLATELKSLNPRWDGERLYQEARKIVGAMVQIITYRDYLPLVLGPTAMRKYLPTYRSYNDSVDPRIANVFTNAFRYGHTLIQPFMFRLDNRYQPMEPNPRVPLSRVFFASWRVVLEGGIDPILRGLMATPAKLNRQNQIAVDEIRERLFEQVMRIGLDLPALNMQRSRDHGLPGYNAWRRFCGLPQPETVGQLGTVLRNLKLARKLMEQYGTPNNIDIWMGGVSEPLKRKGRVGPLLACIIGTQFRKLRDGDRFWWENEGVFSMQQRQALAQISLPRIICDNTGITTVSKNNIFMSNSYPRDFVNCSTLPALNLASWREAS
# ASSAY PROCEDURE: MPO Peroxidation Assay (Amplex Red Assay)
# Assay type: biochemical
# MEASUREMENT SETUP: potency range class
pIC50: −log10 of the molar value.
PROPERTY NAME: pIC50

COMPOUND	pIC50
Nc1cc(C(CCN[C@H]2CC[C@H](c3ccccc3)CC2)c2cnn(C3CCCC3)c2)c2nn[nH]c2n1 (stereo partly drawn)	5.00 to 6.00
Nc1cc(C(CCN[C@H]2CC[C@H](c3ccccc3)CC2)c2cnn(C3CC3)c2)c2nn[nH]c2n1 (stereo partly drawn)	5.00 to 6.00

# map each compound to its pIC50
1. Nc1cc(C(CCNC23CCC(c4ccccc4)(CC2)[C@@H](O)C3)c2cnn(Cc3cccc(O)c3)c2)c2nn[nH]c2n1 (stereo partly drawn)
2. Nc1cc(C(CCN[C@H]2CC[C@H](c3ccccc3)CC2)c2cccnc2)c2nn[nH]c2n1 (stereo partly drawn)
3. Nc1cc(C(CCN[C@H]2CC[C@H](c3ccccc3)CC2)c2cnn(CC3CCC3)c2)c2nn[nH]c2n1 (stereo partly drawn)
4. Nc1cc(C(CCC(c2ccccc2)c2ccccc2)c2cnn(Cc3ccc4c(c3)CCNC4)c2)c2nn[nH]c2n1 (stereo not drawn)

## Result
["7.00 to 9.00", "6.00 to 7.00", "6.00 to 7.00", "5.00 to 6.00"]
